test system: Plasmodium falciparum; experiment: GSK_TCMDC: Inhibition of Plasmodium falciparum Dd2 in whole red blood cells, using parasite LDH activity as an index of growth. Test compounds present at 2uM; format: functional
Property name: Inhibition
Express your answer as a number followed by its unit.

{"Compound": "C=CCc1c(C(=O)NCC23CC4CC(CC(C4)C2)C3)nc2ccccc2c1O", "Reported result": "79%"}
{"Compound": "CN(C)CCNC(=O)c1ccc(-c2ccc3c(Nc4ccccc4)c(C(N)=O)cnc3c2)cc1", "Reported result": "68%"}
{"Compound": "Cc1ccc(CON2C(=N)N=C(N)NC2(C)C)cc1C.Cl", "Reported result": "88%"}

stdin: Item CC(C)N1CCC(N(Cc2ccc(-c3ccc(C(F)(F)F)cc3)cc2)C(=O)Cn2c(SCc3cccc(F)c3F)nc(=O)c3ccccc32)CC1.O=C(O)C(O)C(O)C(=O)O with Plasmodium falciparum - Inhibition?
stdout: 75%

stdin: Quick one: Cc1ccc(CCNCC(O)c2cccc(C(F)(F)F)c2)cc1.Cl (configuration not stated)
stdout: 83%

stdin: Quick one: COCCNc1nc(N2CCC(CNC(=O)c3ccc(-c4ccc(C(=O)N(C)C)cc4C)cc3)CC2)nc2cc(OC)c(OC)cc12
stdout: 97%

stdin: Quick one: Cl.O=C(Nc1cccc(C2=NCCCN2)c1)Nc1cccc(C2=NCCCN2)c1
stdout: 70%

stdin: Quick one: COc1cc2c(cc1OC)CN(c1cc(N)c3cc(OC)c(OC)cc3n1)CC2.CS(=O)(=O)O
stdout: 99%

stdin: Quick one: CCOc1ccc(Nc2nc(N)c3ccccc3n2)cc1.Cl
stdout: 6%

stdin: Quick one: Cc1cccc(C(=O)Nc2ccnc(N3CCC(N(C)Cc4ccc(C#N)cc4)CC3)c2)c1.O=C(O)C(F)(F)F
stdout: 6%

stdin: Quick one: COc1c(C2CCN(CCCCNC(=O)c3ccc(-c4ccc(Cl)cc4)c(OCC(N)=O)c3)CC2)ccc2c1CCCC2
stdout: 11%

stdin: Quick one: CC(NC(=O)c1ccc(O)c(-c2ccc(Cl)c(Cl)c2)c1)C(=O)NCCN1CCOCC1 (configuration not stated)
stdout: 7%

stdin: Quick one: COc1ccccc1C1CC(c2ccccc2)=NN1C(=O)c1ccco1 (configuration not stated)
stdout: 95%

stdin: Quick one: Cc1cc(N[C@@H](CC(C)C)C(=O)Nc2ccccc2)nc(NCCc2ccc(F)cc2)n1.O=C(O)C(F)(F)F
stdout: 94%

stdin: Quick one: CC(O)C1CCCCN1C(=O)c1cccc(-c2ccc(-c3nc4cc(F)ccc4[nH]3)cc2)c1 (configuration not stated)
stdout: 99%

stdin: Quick one: CCNc1cc(C)nc(Nc2ccc(NC(=O)c3ccccc3)cc2)n1
stdout: 63%

stdin: Quick one: O=C(Nc1cccc(CN2CCCN(Cc3ccc(O)cc3)CC2)c1)c1ccc(Cl)c(Cl)c1.O=C(O)C(F)(F)F
stdout: 81%

stdin: Quick one: Cc1nc2nc(N)nc(N)c2c(C)c1Cc1ccc(C#N)cc1.Cl
stdout: 4%

stdin: Quick one: CC(=O)O.COc1ccc(CNc2ccc3nc(N)nc(N)c3c2)cc1
stdout: 84%

stdin: Quick one: Cc1cc(NCCC(=O)NCCOc2ccccc2)nc(NCCOc2ccccc2)n1.O=C(O)C(F)(F)F
stdout: 20%

---

test system: Plasmodium falciparum; experiment: GSK_TCMDC: Inhibition of Plasmodium falciparum 3D7 in whole red blood cells, using parasite LDH activity as an index of growth. Test compounds present at 2uM; type: functional
Property name: Inhibition (%)
The figure you give is taken to be in %; do not add the unit.

{"Compound": "Oc1ccc2[nH]c(-c3cccc(F)c3)nc2c1CN1CCCC1", "Inhibition (%)": 100}
{"Compound": "CS(=O)(=O)c1ccc(-c2cncc(Cl)n2)cc1", "Inhibition (%)": 100}
{"Compound": "CCCc1ccc(C(=O)N2C(c3nccs3)C(C(N)=O)CC2(CC(C)C)C(=O)O)cc1 (stereo unspecified)", "Inhibition (%)": 94}
{"Compound": "Cc1c(F)cc(C(=O)NC2CC2)cc1-c1ccc2c(cnn2S(=O)(=O)c2ccc(C#N)cc2)c1", "Inhibition (%)": 97}
{"Compound": "Clc1ccc(Nc2nc(-c3ccccn3)cs2)nc1", "Inhibition (%)": 95}
{"Compound": "O=C(O)C(F)(F)F.c1ccc(CN2CCC(NCc3ccccc3-c3ccc(CNC4CCCC4)cc3)CC2)cc1", "Inhibition (%)": 100}
{"Compound": "N#Cc1cc([N+](=O)[O-])ccc1-n1nc(-c2cccc(Cl)c2)n(Cc2ccco2)c1=S", "Inhibition (%)": 100}
{"Compound": "O=c1cc(NCCCNCc2cccc(OC(F)(F)C(F)F)c2)[nH]c2ccccc12", "Inhibition (%)": 81}
{"Compound": "CC(C)c1ccc(NC(=O)c2ccc(NCCCN(C)Cc3ccccc3)c([N+](=O)[O-])c2)cc1", "Inhibition (%)": 100}
{"Compound": "Br.CC1(C)NC(N)=NC(=N)N1OCCCOc1cc(Cl)cc(Cl)c1", "Inhibition (%)": 95}

stdin: Item Cc1cc(-c2cccc(CNC3CCN(C)CC3)c2)ccc1S(=O)(=O)NCc1ccccc1.O=C(O)C(F)(F)F with Plasmodium falciparum - Inhibition?
stdout: 99

---

system: Plasmodium falciparum; assay: GSK_TCMDC: Inhibition of Plasmodium falciparum 3D7 in whole red blood cells, using parasite LDH activity as an index of growth. Test compounds present at 2uM; type: functional
Entries and their Inhibition
The figure you give is taken to be in %; do not add the unit.

Look over these answered cases.
{"Compound": "COc1ccc(C2C(C(=O)Nc3cc(OC)c(OC)c(OC)c3)c3cc(OC)c(OC)cc3C(=O)N2C)cc1 (centres undefined)", "Unit info": "%", "Inhibition": 98}
{"Compound": "Cc1cccc2nc(-c3ccc(-c4ccc(CNCCCN5CCCC5=O)cc4)cc3)[nH]c12.O=C(O)C(F)(F)F", "Unit info": "%", "Inhibition": 100}
{"Compound": "Br.COc1cc(CCON2C(N)=NC(N)=NC2(C)C)cc(OC)c1OC", "Unit info": "%", "Inhibition": 93}

stdin: // returns reported Inhibition for input COc1ccc2nc(C)cc(Nc3ccc(Oc4ccc5ccccc5c4)c(Cl)c3)c2c1
stdout: 100

stdin: Quick one: CC(C)(Oc1ccc(Cl)cc1)C(=O)NCCC1CCN(CCCCCNC(=O)/C=C/c2ccc(Cl)c(Cl)c2)CC1
stdout: 87

stdin: Quick one: CC(C)C1C(O)=C(c2ccc3ccccc3c2)C(=O)N1Cc1cccc(F)c1 (centres undefined)
stdout: 97

stdin: Quick one: COc1cccc(NC(=O)Cn2c(C)c(C#N)c3ccccc32)c1
stdout: 100

stdin: Quick one: COc1cc(NC(=O)C(c2ccc(Cl)cc2)C(C)C)cc(OC)c1 (centres undefined)
stdout: 99

stdin: Quick one: Cc1cc2c(cc1C(F)(F)F)N(C(=O)Nc1cccc(C(=O)NC3CCN(Cc4ccccc4)CC3)c1)CC2
stdout: 91

---

Entries and their Inhibition
test system: HepG2; assay: GSK_TCMDC: Percent inhibition of human HepG2 cell line. Test compounds present at 10uM.; type: functional
The figure you give is taken to be in %; do not add the unit.

{"Molecule": "Cc1cc(N[C@@H](Cc2ccccc2)C(=O)NCCCOC(C)C)nc(NCC2CCCCC2)n1.O=C(O)C(F)(F)F", "Reported result": 17}

Moving on to the next molecule.
stdin: Item Cl.Oc1ccc2ccccc2c1CNCCC1CCCCC1 with HepG2 - Inhibition?
stdout: 16

---

system: HepG2; experiment: GSK_TCMDC: Percent inhibition of human HepG2 cell line. Test compounds present at 10uM.; assay type: functional
Property name: Inhibition (%)
The figure you give is taken to be in %; do not add the unit.

{"Compound": "COc1cccc2c(Nc3ccccc3C)nc(Nc3ccccc3C)nc12", "Reported result": 9}
{"Compound": "CCCCCCCCc1c(C)nc(C)c(C#N)c1O", "Reported result": 0}
{"Compound": "CN(C)CCOc1ccc2c(=O)cc(CCc3cccc(F)c3F)n(CC(=O)N(C)Cc3ccc(-c4ccc(C(F)(F)F)cc4)cc3)c2c1.O=C(O)C(O)C(O)C(=O)O", "Reported result": 33}
{"Compound": "O=C(NCc1cccnc1)C(c1cc2ccccc2o1)N1CCN(C(c2ccccc2)c2ccccc2)CC1 (stereo not given)", "Reported result": 12}

Moving on to the next compound.
stdin: // returns reported Inhibition for input CN(C(=O)Cc1ccc(Cl)c(Cl)c1)C1CCN(CCCCCNC(=O)/C=C/c2ccc(Cl)c(Cl)c2)CC1
stdout: 87

---

tested on: HepG2; experiment: GSK_TCMDC: Percent inhibition of human HepG2 cell line. Test compounds present at 10uM.; type: functional
Property name: Inhibition (%)
The figure you give is taken to be in %; do not add the unit.

{"Molecule": "COc1ccccc1/C=C/C(=O)NC1CCC(CCN2CCc3ccc(-c4cc(C)no4)cc3CC2)CC1.Cl (centres undefined)", "Reported result": 47}
{"Molecule": "O=C(Nc1ccc(F)c(F)c1)c1ccc(CN2CCCN(Cc3cccc(F)c3)CC2)cc1.O=C(O)C(F)(F)F", "Reported result": 51}
{"Molecule": "CC(=O)Nc1ccc2[nH]cc(C3CCN(CC4CCC(NC(=O)/C=C/c5ccccc5Cl)CC4)CC3)c2n1 (centres undefined)", "Reported result": 16}

Moving on to the next molecule.
stdin: // returns reported Inhibition for input Cl.O=C(C(=O)c1ccc(Nc2ccnc3cc(-c4ccccn4)ccc23)cc1)c1ccccc1
stdout: 22
